Biological target: T1, human E-selectin extracellular domain with 10 His purification tail (human, UniProt P16581 22-556)
T1 construct: also called soluable human E-selectin extracellular domain; rhE-Selectin
T1 sequence: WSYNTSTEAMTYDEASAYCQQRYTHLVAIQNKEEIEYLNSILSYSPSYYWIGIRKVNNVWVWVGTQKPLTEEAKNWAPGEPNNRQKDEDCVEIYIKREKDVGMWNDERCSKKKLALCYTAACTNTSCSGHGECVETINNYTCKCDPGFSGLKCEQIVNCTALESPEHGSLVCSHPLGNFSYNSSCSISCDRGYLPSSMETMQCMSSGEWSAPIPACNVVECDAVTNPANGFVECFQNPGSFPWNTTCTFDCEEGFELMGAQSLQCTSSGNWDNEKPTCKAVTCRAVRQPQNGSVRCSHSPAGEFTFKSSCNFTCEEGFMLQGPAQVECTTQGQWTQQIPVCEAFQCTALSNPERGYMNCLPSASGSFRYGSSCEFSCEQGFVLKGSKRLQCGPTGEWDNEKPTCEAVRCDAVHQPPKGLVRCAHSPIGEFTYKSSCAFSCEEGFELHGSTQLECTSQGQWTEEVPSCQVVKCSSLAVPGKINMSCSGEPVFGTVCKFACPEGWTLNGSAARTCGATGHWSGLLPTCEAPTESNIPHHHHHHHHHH
Assay: SPR, antibody captured, E-selectin analyte
ENDPOINT_NAME: t½ (s)
Report the value in s with no unit label.

See these solved cases before continuing.
BINDER: anti-E-selectin antibody 0164 chimera (antibody, human IgG1, kappa, V domains shown, rat VH/VL on effector-null human IgG1 and human kappa) VH: EVQLQQSGAEFGKPGTSVKLSCKVSGYNIRSSYMHWVNQRPGKGLEWIGRIDPANGNTIYAEKFKIKAILTADSSSNTAYMQLSQLKSDDTAIYFCAMDLYSTSEYWGQGVMVTVSS VL: DIQMTQSPSFLSASVGDRVTINCKTSQNINRYLNWYQQKLGEAPKLLIYNANSLQTGIPSRFSASGSGTDFTLTINSLQPEDVATYFCLQDNSWPLTFGSGTKLEIKR
UNIT_NAME: s
t½: 61.6

BINDER: anti-E-selectin antibody 0170 chimera (antibody, human IgG1, kappa, V domains shown, rat VH/VL on effector-null human IgG1 and human kappa) VH: EVQLQQSGAELGKPGTSVKLSCKVSGYSIRSTYMHWVNQRPGKGLEWVGRIDPANGNTIYAERFKNKATLTADTSSNTAYMQLSQLKSDDTAIYFCAVEILGIFDYWGQGVMVTVSS VL: DIQMTQSPSFLSASVGDRVTINCKASQNIDKYLDWYQQKLGEAPKLLMYNTNSLHTGIPSRFSGSGSGTDFTLTISSLQPEDVATYFCLQHNSGYTFGAGTKLELKR
UNIT_NAME: s
t½: 12.6

BINDER: anti-E-selectin antibody 0158 chimera (antibody, human IgG1, kappa, V domains shown, rat VH/VL on effector-null human IgG1 and human kappa) VH: QVQLKESGPGLVQPSETLSLTCTVSGFSISTYNVHWLRQPPGKGLEWMGMMWSGGSPDYNSALKSRLSISRDTSKNQVFLKMNSLQSEDTTTYYCARWGGGFDYWGQGVMVTVSS VL: DIVLTQSPTTLSVTPGETVSLSCRASHSIGTNLHWYQQKTNESPRLLIKFTSQSISGIPSRFSASGSGTDFTLNINNVEFDDVSSYFCQQTQSWPLTFGSGTKLEIKR
UNIT_NAME: s
t½: 397

BINDER: anti-E-selectin antibody 0180 chimera (antibody, human IgG1, kappa, V domains shown, rat VH/VL on effector-null human IgG1 and human kappa) VH: EVQLQQSGAELGKPGTSVKLSCKVSGYKIRSSYMHWVNQRPGKGLEWIGRIDPANGNTIYGDKFKSKATLTSDTSSNTAYIQLSQLKSDDTAIYFCAIDIGTTFDYWGQGVMVTVSS VL: DIQMTQSPSFLSASVGDRVTINCKASQHINRYLNWYQQKLGEAPKLLIYDANNLQTGIPSRFSGSGSGTDFTLTISSLQPEDVATYFCLQHNSWPNTFGAGTKLELKR
UNIT_NAME: s
t½: 1.05

BINDER: anti-E-selectin antibody 0039 chimera (antibody, human IgG1, kappa, V domains shown, rat VH/VL on effector-null human IgG1 and human kappa) VH: QVQLKETGPGLVQPTQTLSITCTVSGFSLTGYYMQWVRQTPGKGLEWMGFIRSSGSTEYNSEFKSRLSISRDTSKNQVFLKMNSLKTEDTGVYYCARCPYKYSSFVYVGVMDAWGQGAPVTVSS VL: EIVMTQSPTSMSTSIGERVTLNCKASQTVGINVDWYQQTPGQPPKLLIYGASNRHTGVPDRFTGSGFGRDFTLTISNVEAEDLAVYCCLQYGSIPHTFGPGTKLELKR
UNIT_NAME: s
t½: 174

// query Which t½ is listed for anti-E-selectin antibody 0159 chimera (antibody, human IgG1, kappa, V domains shown, rat VH/VL on effector-null human IgG1 and human kappa) VH: EVQLQQSGAELGKPGTSVKLSCKVSGYNIRSTYMHWVSQRPGKGLEWIGRIDPANGNTIYAEKFKRKATLTADTSSNTAYMQLSQLKSDDRAIYFCAMEVRVSFEYWGQGVMVTVSS VL: DIQMTQSPSFLSASVGDRVTINCKASQNINKYLDWYQQKLGEGPKLLIYYTNNLHTGIPSRFSGSGSGTDFTLTISSLQPEDVATYFCLQHDSGYTFGAGTKLELKR ?
// result 18.7
